The compounds listed here are annotated with their IC50.
molecular target: human recombinant kinase full-length AKT1 E17K (Homo sapiens, UniProt P31749, E17K); construct: Purified human recombinant kinase full-length AKT1 E17K was expressed in insect cells; assay: AKT1 E17K kinase assay (TR-FRET, Lance); details: 0.6 nM AKT1 E17K, 50 nM Ulight-CREBtide, either 50 μM ATP or 2 mM ATP, 60 min at RT
Sequence (P31749 whole entry E17K): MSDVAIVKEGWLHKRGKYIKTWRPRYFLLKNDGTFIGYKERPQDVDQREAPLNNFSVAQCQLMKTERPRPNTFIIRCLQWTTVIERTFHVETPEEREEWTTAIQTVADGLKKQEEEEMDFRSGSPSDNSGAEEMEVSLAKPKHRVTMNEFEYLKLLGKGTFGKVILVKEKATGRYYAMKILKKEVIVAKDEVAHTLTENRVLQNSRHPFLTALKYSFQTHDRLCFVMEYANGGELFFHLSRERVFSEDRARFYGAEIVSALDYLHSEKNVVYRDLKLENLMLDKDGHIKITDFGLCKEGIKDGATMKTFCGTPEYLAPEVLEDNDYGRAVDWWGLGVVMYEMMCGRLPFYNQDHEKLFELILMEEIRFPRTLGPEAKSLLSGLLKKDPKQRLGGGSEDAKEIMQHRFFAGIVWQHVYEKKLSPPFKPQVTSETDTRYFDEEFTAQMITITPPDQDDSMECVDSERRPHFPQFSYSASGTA

# example entries with known answers
Nc1ncccc1-c1nc2ccc(-c3ccccc3F)nc2n1-c1ccc(C2CN(CC34CCC(C(=O)O)(CC3)CC4)C2)cc1    < 500 nM
Cc1cc(C2CN(CC3CC4(C3)CC(C(=O)O)C4)C2)ccc1-n1c(-c2cccnc2N)nc2ccc(-c3ccccc3)nc21 (stereo not shown)    < 500 nM
Cc1cc(C2CN(CC34CCC(C(=O)O)(CC3)CC4)C2)ccc1-n1c(-c2cccnc2N)nc2ccc(-c3ccccc3F)nc21    500 to 2000 nM
Cc1nc(-n2c(-c3cccnc3N)nc3ccc(-c4ccccc4)nc32)ccc1NC(=O)C1CC2(CC(C(=O)O)C2)C1 (stereo not shown)    ≥ 2000 nM
Nc1ncccc1-c1nc2ccc(-c3ccccc3)nc2n1-c1ccc(CN(CC(F)(F)F)[C@H]2CC[C@H](C(=O)O)CC2)cc1 (single isomer, unassigned)    ≥ 2000 nM

Problem: Look up IC50: Cc1nc(NC(=O)C2CCC(C(=O)O)C2)ccc1-n1c(-c2cccnc2N)nc2ccc(-c3ccccc3)nc21 (stereo not shown)
Result: 500 to 2000 nM

Problem: Same question for Cc1cc2nc(-c3cccnc3N)n(-c3ccc(C4CN(C[C@H]5CC[C@@H](C(=O)O)CC5)C4)cc3)c2nc1-c1ccccc1 please.
Result: < 500 nM

Problem: Same question for Nc1ncccc1-c1nc2cc(-c3cccnc3)cnc2n1-c1ccc(C2CN(C[C@H]3CC[C@H](C(=O)O)CC3)C2)cc1 please.
Result: ≥ 2000 nM

Problem: Same question for CN(Cc1ccc(-n2c(-c3cccnc3N)nc3ccc(-c4ccccc4)nc32)c(F)c1)[C@H]1CC[C@@H](C(=O)O)CC1 please.
Result: < 500 nM

Problem: Same question for Nc1ncccc1-c1nc2ccc(-c3ccccc3)nc2n1-c1ccc(N2CCC(C(=O)O)CC2)nc1 please.
Result: 500 to 2000 nM

Problem: Same question for Nc1ncccc1-c1nc2ccc(-c3ccccc3)nc2n1-c1ccc(NC(=O)C2CC3(CC(C(=O)O)C3)C2)nc1 (stereo not shown) please.
Result: < 500 nM

Problem: Same question for NC(=O)N1CCC(C(=O)Nc2ccc(-n3c(-c4cccnc4N)nc4ccc(-c5ccccc5)nc43)cn2)CC1 please.
Result: < 500 nM

Problem: Same question for Nc1ncccc1-c1nc2ccc(-c3ccccc3)nc2n1-c1ccc(C2CCCN(CC3CCC(C(=O)O)CC3)C2)cc1 (stereo not shown) please.
Result: ≥ 2000 nM

* * *

Molecular target: human recombinant kinase full-length AKT1 E17K (Homo sapiens, UniProt P31749, E17K)
Construct: Purified human recombinant kinase full-length AKT1 E17K was expressed in insect cells
Assay: AKT1 E17K kinase assay (TR-FRET, Lance)
Conditions: 0.6 nM AKT1 E17K, 50 nM Ulight-CREBtide, either 50 μM ATP or 2 mM ATP, 60 min at RT
Description: AKT1 E17K kinase assay: Inhibitory effects of compounds on AKT1 E17K were undertaken in a 10-pt dose response kinase activity assay measuring phospho-peptide product formation based on TR-FRET signal as described in the following paragraph. Purified human recombinant kinase full-length AKT1 E17K was expressed in insect cells and activated in vitro by PDPK1. […] The fluorescence emissions at 620 nm and 665 nm after excitation at 350 nm was measured using Envision reader. […]
pIC50: −log10 of the molar value.
MEASURED_QUANTITY: pIC50

# example entries with known answers
CN(Cc1ccc(-n2c(-c3cccnc3N)nc3ccc(-c4ccccc4)nc32)cc1)[C@H]1CC[C@H](C(=O)O)CC1 [Compound I-96]    > 6.30
CN(Cc1ccc(-n2c(-c3cccnc3N)nc3ccc(-c4ccccc4)nc32)c(F)c1)[C@H]1CC[C@H](C(=O)O)CC1 [Compound I-164]    5.70 to 6.30
CC(c1ccc(-n2c(-c3cccnc3N)nc3ccc(-c4ccccc4)nc32)cc1)N(C)[C@H]1CC[C@@H](C(=O)O)CC1 (stereo partly shown) [Compound I-177]    5.70 to 6.30
Cc1c(-n2c(-c3cccnc3N)nc3ccc(-c4ccccc4)nc32)ccc(NC(=O)[C@H]2CC[C@H](C(=O)O)CC2)c1F [Compound I-103]    ≤ 5.70

Problem: Look up pIC50: Cc1nc(NC(=O)[C@H]2CC[C@H](C(N)=O)CC2)ccc1-n1c(-c2cccnc2N)nc2ccc(-c3ccccc3)nc21 [Compound I-142]
Result: 5.70 to 6.30

Problem: Same question for CC1(C)C[C@H](CN2CC(c3ccc(-n4c(-c5cccnc5N)nc5ccc(-c6ccccc6)nc54)cc3)C2)CC[C@H]1C(=O)O [Compound I-71] please.
Result: > 6.30

Problem: Same question for Cc1nc(NC(=O)[C@H]2CC[C@H](C(=O)O)CC2)ccc1-n1c(-c2cccnc2N)nc2ccc(-c3ccc(F)cc3F)nc21 [Compound I-216] please.
Result: ≤ 5.70

Problem: Same question for Cc1nc(NC[C@H]2CC[C@H](C(=O)O)CC2)ccc1-n1c(-c2cccnc2N)nc2ccc(-c3ccccc3)nc21 [Compound I-131] please.
Result: 5.70 to 6.30

Problem: Same question for CCN(Cc1ccc(-n2c(-c3cccnc3N)nc3ccc(-c4ccccc4)nc32)cc1)[C@H]1CC[C@H](C(=O)O)CC1 [Compound I-167] please.
Result: 5.70 to 6.30

Problem: Same question for Cc1nc(NC(=O)[C@H]2CC[C@H](C(=O)O)CC2)ccc1-n1c(-c2cccnc2N)nc2ccc(-c3ccccc3)cc21 [Compound I-127] please.
Result: 5.70 to 6.30

Problem: Same question for Nc1ncccc1-c1nc2ccc(-c3ccccc3)nc2n1-c1c(F)cc(C2CN(C[C@H]3CC[C@H](C(=O)O)CC3)C2)cc1F [Compound I-208] please.
Result: 5.70 to 6.30

Problem: Same question for CC1(C)C[C@@H](C(=O)O)CC[C@@H]1CN1CC(c2ccc(-n3c(-c4cccnc4N)nc4ccc(-c5ccccc5)nc43)cc2)C1 (stereo in doubt) [Compound I-145] please.
Result: 5.70 to 6.30

Problem: Same question for Cc1nc(NC(=O)C2CCC(C(=O)O)CC2)ccc1-n1c(-c2cccnc2N)nc2ccc(-c3ccccc3)nc21 (stereo not shown) [Compound I-108] please.
Result: 5.70 to 6.30

* * *

The molecules listed here are annotated with their IC50.
biological target: human recombinant kinase full-length AKT1 E17K (Homo sapiens, UniProt P31749, E17K); construct: Purified human recombinant kinase full-length AKT1 E17K was expressed in insect cells; assay: AKT1 E17K kinase assay (TR-FRET, Lance); settings: 0.6 nM AKT1 E17K, 50 nM Ulight-CREBtide, either 50 μM ATP or 2 mM ATP, 60 min at RT

# example entries with known answers
Cc1cc2nc(-c3cccnc3N)n(-c3ccc(C4CN(C[C@H]5CC[C@H](C(=O)O)CC5)C4)cc3)c2nc1-c1ccccc1 [Compound I-235]    < 500 nM
CC1(C)CC(CN2CCC(c3ccc(-n4c(-c5cccnc5N)nc5ccc(-c6ccccc6)nc54)cc3)CC2)CCC1C(=O)O (stereo not shown) [Compound I-193]    ≥ 2000 nM
Cc1nc(NC(=O)[C@H]2CC[C@H](C(=O)O)CC2)ccc1-n1c(-c2cccnc2N)nc2ccc(-c3cccc(F)c3)nc21 [Compound I-214]    < 500 nM

Problem: Look up IC50: COc1ccccc1-c1ccc2nc(-c3cccnc3N)n(-c3ccc(NC(=O)[C@H]4CC[C@H](C(=O)O)CC4)nc3C)c2n1 [Compound I-220]
Result: 500 to 2000 nM

* * *

target: human recombinant kinase full-length AKT1 E17K (Homo sapiens, UniProt P31749, E17K); construct: Purified human recombinant kinase full-length AKT1 E17K was expressed in insect cells; experiment: AKT1 E17K kinase assay (TR-FRET, Lance); conditions: 0.6 nM AKT1 E17K, 50 nM Ulight-CREBtide, either 50 μM ATP or 2 mM ATP, 60 min at RT
MEASURED_QUANTITY: IC50

# example entries with known answers
Nc1ncccc1-c1nc2ccc(-c3ccccc3F)nc2n1-c1ccc(C2CN(CC3CC4CC(C(=O)O)CC4C3)C2)cc1 (stereo not shown) [Compound I-202]    < 500 nM
Nc1ncccc1-c1nc2ccc(-c3ccccc3)nc2n1-c1ccc(NC(=O)N2CCC(C(=O)O)CC2)c(F)c1 [Compound I-106]    500 to 2000 nM

Problem: Look up IC50: Nc1ncccc1-c1nc2ccc(-c3ccccc3)nc2n1-c1ccc(CN2CCC(CC(=O)O)CC2)cc1 [Compound I-97]
Result: 500 to 2000 nM

Problem: Same question for CC(c1ccc(-n2c(-c3cccnc3N)nc3ccc(-c4ccccc4)nc32)cc1)N1CCC(C(=O)O)C1 (stereo not shown) [Compound I-84] please.
Result: ≥ 2000 nM

Problem: Same question for Cc1nc(NC(=O)C2CCC(C)(C(=O)O)CC2)ccc1-n1c(-c2cccnc2N)nc2ccc(-c3ccccc3)nc21 (stereo not shown) [Compound I-128] please.
Result: 500 to 2000 nM

Problem: Same question for Cc1nc(NC(=O)C2CC3(CC(C(=O)O)C3)C2)ccc1-n1c(-c2cccnc2N)nc2ccc(-c3ccccc3)nc21 (stereo not shown) [Compound I-125] please.
Result: < 500 nM

Problem: Same question for C[C@]1(C(=O)O)CC[C@H](CN2CC(c3ccc(-n4c(-c5cccnc5N)nc5ccc(-c6ccccc6)nc54)cc3)C2)CC1 [Compound I-138] please.
Result: < 500 nM

Problem: Same question for CC1(C)C[C@@H](CN2CC(c3ccc(-n4c(-c5cccnc5N)nc5ccc(-c6ccccc6)nc54)cc3)C2)CC[C@H]1C(=O)O [Compound I-69] please.
Result: < 500 nM

Problem: Same question for Nc1ncccc1-c1nc2ccc(-c3ccccc3)nc2n1-c1ccc([C@H]2CCN(C[C@H]3CC[C@H](C(=O)O)CC3)C2)cc1 (single isomer, unassigned) [Compound I-232] please.
Result: 500 to 2000 nM

Problem: Same question for Nc1ncccc1-c1nc2ccc(-n3cccn3)cc2n1-c1ccc(C2CN(C[C@H]3CC[C@H](C(=O)O)CC3)C2)cc1 [Compound I-72] please.
Result: ≥ 2000 nM

Problem: Same question for Nc1ncccc1-c1nc2ccc(-c3ccccc3)nc2n1-c1ccc(NC[C@H]2CC[C@@H](C(=O)O)CC2)nc1 [Compound I-114] please.
Result: 500 to 2000 nM

Problem: Same question for C[C@@H]([C@H]1CC[C@H](C(=O)O)CC1)N1CC(c2ccc(-n3c(-c4cccnc4N)nc4ccc(-c5ccccc5)nc43)cc2)C1 [Compound I-60] please.
Result: 500 to 2000 nM

Problem: Same question for Nc1ncccc1-c1nc2ccc(-c3ccccc3)nc2n1-c1ccc(NC(=O)C2CCC(C(=O)O)C2)cc1 (stereo not shown) [Compound I-1] please.
Result: < 500 nM
